We begin with a simple list: items and their reported IC50.
Tested on: MRC-5 normal cells
experimental-protocol: SRB cytotoxicity assay, MRC-5 normal cells
Format: cell-based
particulars: Homo sapiens, MRC5, 50% growth inhibition, 48 h exposure
Give the quantity in µM, number only.

Qu. Item N#Cc1ccc(C=C(C(=O)O)c2ccccc2)cc1 has what recorded IC50?
Ans. 222

---

We begin with a simple list: items and their reported pIC50.
measured-on: soybean lipoxygenase (Glycine max, UniProt P08170)
Sequence (P08170 1-839): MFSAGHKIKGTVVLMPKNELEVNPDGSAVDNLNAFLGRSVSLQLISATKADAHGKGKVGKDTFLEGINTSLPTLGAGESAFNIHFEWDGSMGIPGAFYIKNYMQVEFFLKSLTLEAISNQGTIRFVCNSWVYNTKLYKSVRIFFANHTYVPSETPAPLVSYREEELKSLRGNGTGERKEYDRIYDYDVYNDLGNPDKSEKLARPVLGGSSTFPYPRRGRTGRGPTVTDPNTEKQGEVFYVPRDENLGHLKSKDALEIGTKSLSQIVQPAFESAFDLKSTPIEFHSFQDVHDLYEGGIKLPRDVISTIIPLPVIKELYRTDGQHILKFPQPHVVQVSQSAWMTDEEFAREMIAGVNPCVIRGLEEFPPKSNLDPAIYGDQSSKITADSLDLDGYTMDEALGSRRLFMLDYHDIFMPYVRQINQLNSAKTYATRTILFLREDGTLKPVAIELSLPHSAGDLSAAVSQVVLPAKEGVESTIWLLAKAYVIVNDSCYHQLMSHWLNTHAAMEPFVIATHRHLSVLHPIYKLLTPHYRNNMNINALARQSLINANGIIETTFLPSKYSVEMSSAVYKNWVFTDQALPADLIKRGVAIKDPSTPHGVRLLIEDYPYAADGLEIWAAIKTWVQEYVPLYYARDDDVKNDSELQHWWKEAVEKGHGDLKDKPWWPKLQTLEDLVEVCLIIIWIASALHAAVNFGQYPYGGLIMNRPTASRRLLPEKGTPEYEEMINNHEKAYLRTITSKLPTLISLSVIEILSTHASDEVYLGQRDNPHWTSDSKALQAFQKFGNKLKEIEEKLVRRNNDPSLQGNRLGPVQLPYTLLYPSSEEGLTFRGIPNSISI
Reminder that pIC50 means the negative base-10 logarithm of the concentration expressed in mol/L.

                        smi                               measured_on  value_kind  measured
0  O=C(O)C=CC(Br)=Cc1ccccc1  soybean lipoxygenase (Glycine max, UniProt P08170)       pIC50      5.00

Okay, now this molecule:
Qu. Item O=C(O)C(=CC(Br)=Cc1ccccc1)c1ccccc1 with soybean lipoxygenase (Glycine max, UniProt P08170) - pIC50?
Ans. 4.13

---

experimental-protocol: Superoxide radical scavenging activity (non-enzymatic, PMS/NADH, NBT method)
particulars: 0.1 mM; no = no action under the used experimental conditions
value-kind: O2−· (%) (±SD)

Worked examples, 6 compounds total:
                                   compound   measured
0        O=C(O)C=CC=Cc1ccc([N+](=O)[O-])cc1         no
1  O=C(O)/C=C/c1ccc(O)c(O)c1 [Caffeic acid, caffeic acid, reference compound]  46 ± 0.5%
2        O=C(O)C(=CC(Br)=Cc1ccccc1)c1ccccc1         no
3                  O=C(O)C=CC(Br)=Cc1ccccc1         no
4                      O=C(O)C=CC=Cc1ccccc1         no
5            O=C(O)C(=CC=Cc1ccccc1)c1ccccc1         no

Okay, now this compound:
Qu. Item O=C(O)C(=CC=Cc1ccc([N+](=O)[O-])cc1)c1ccccc1 has what recorded O2−· (%) (±SD)?
Ans. no

---

We begin with a simple list: items and their reported melting point.

Worked examples, 5 compounds total:
In [3]: df
Out[3]:
                                  smi       measured
0            O=C(O)C=CC(Br)=Cc1ccccc1  169 to 171 °C
1  O=C(O)C=CC=Cc1ccc([N+](=O)[O-])cc1  170 to 172 °C
2      O=C(O)C(=CC=Cc1ccccc1)c1ccccc1  145 to 147 °C
3  O=C(O)C(=CC(Br)=Cc1ccccc1)c1ccccc1  135 to 136 °C
4    N#Cc1ccc(C=C(C(=O)O)c2ccccc2)cc1  155 to 157 °C

Qu. Item O=C(O)C(=CC=Cc1ccc([N+](=O)[O-])cc1)c1ccccc1 has what recorded melting point?
Ans. 163 to 165 °C

Qu. Item N#Cc1ccc(C=CC(=O)O)cc1 has what recorded melting point?
Ans. 258 to 260 °C

---

We begin with a simple list: items and their reported pIC50.
System: MDA-MB-231 (breast)
experimental-protocol: SRB cytotoxicity assay, MDA-MB-231
Assay type: cell-based
particulars: Homo sapiens, 50% growth inhibition, 48 h exposure
pIC50: −log10 of the molar value.

Qu. Item N#Cc1ccc(C=C(C(=O)O)c2ccccc2)cc1 with MDA-MB-231 (breast) - pIC50?
Ans. < 3.62

Qu. Item O=C(O)C(=CC=Cc1ccc([N+](=O)[O-])cc1)c1ccccc1 with MDA-MB-231 (breast) - pIC50?
Ans. 3.70

Qu. Item O=C(O)C(=CC(Br)=Cc1ccccc1)c1ccccc1 with MDA-MB-231 (breast) - pIC50?
Ans. 3.60

Qu. Item O=C(O)C=CC(Br)=Cc1ccccc1 with MDA-MB-231 (breast) - pIC50?
Ans. 4.32

Qu. Item O=C(O)C(=CC=Cc1ccccc1)c1ccccc1 with MDA-MB-231 (breast) - pIC50?
Ans. < 3.62

Qu. Item O=C(O)C=CC=Cc1ccc([N+](=O)[O-])cc1 with MDA-MB-231 (breast) - pIC50?
Ans. < 3.62

Qu. Item O=C(O)C=CC=Cc1ccccc1 with MDA-MB-231 (breast) - pIC50?
Ans. < 3.62

Qu. Item N#Cc1ccc(C=CC(=O)O)cc1 with MDA-MB-231 (breast) - pIC50?
Ans. < 3.62

---

We begin with a simple list: items and their reported RM (±SD).
experimental-protocol: Determination of RM values by reversed phase TLC (RPTLC)
Assay type: physicochemical
particulars: CH3OH:H2O:CH3COOH (77:23:0.1), average of at least 10 measurements
Marks after values point to notes of the source that are not given here.

Worked examples, 7 compounds total:
>>> df
                                        smi           measured
0                  O=C(O)C=CC(Br)=Cc1ccccc1  −0.847 (0.044) ^e
1          N#Cc1ccc(C=C(C(=O)O)c2ccccc2)cc1  −0.895 (0.004) ^e
2        O=C(O)C=CC=Cc1ccc([N+](=O)[O-])cc1  −0.868 (0.019) ^e
3  O=C(O)C(=CC=Cc1ccc([N+](=O)[O-])cc1)c1ccccc1  −0.706 (0.062) ^e
4                    N#Cc1ccc(C=CC(=O)O)cc1  −0.972 (0.032) ^e
5                      O=C(O)C=CC=Cc1ccccc1  −0.893 (0.002) ^e
6        O=C(O)C(=CC(Br)=Cc1ccccc1)c1ccccc1   0.566 (0.001) ^e

Okay, now this compound:
Qu. Item O=C(O)C(=CC=Cc1ccccc1)c1ccccc1 has what recorded RM (±SD)?
Ans. 0.987 (0.018) ^e

---

experimental-protocol: Hydroxyl radicals scavenging activity (Fe3+/ascorbic acid system, competition with DMSO)
particulars: 0.1 mM; no = no action under the used experimental conditions
value-kind: HO (%) (±SD)

Worked examples, 8 molecules total:
>>> df
                                   molecule   measured
0  Cc1c(C)c2c(c(C)c1O)CCC(C)(C(=O)O)O2 (stereo not drawn) [Trolox, reference compound]  73 ± 1.0%
1  O=C(O)C(=CC=Cc1ccccc1)c1ccccc1 [Compound 3i, 2,5-Diphenylpenta-2,4-dienoic acid]  81 ± 1.9%
2  O=C(O)C=CC=Cc1ccccc1 [Compound 3ii, 5-Phenylpenta-2,4-dienoic acid]  81 ± 1.2%
3  O=C(O)C=CC=Cc1ccc([N+](=O)[O-])cc1 [Compound 2ii, 5-(4-Nitrophenyl)penta-2,4-dienoic acid]         no
4  O=C(O)C(=CC=Cc1ccc([N+](=O)[O-])cc1)c1ccccc1 [Compound 2i]  33 ± 0.8%
5  N#Cc1ccc(C=C(C(=O)O)c2ccccc2)cc1 [Compound 1i, 3-(4-Cyanophenyl)-2-phenylacrylic acid]         no
6  O=C(O)C(=CC(Br)=Cc1ccccc1)c1ccccc1 [Compound 4i]         no
7  N#Cc1ccc(C=CC(=O)O)cc1 [Compound 1ii, 3-(4-Cyanophenyl)acrylic acid]         no

Okay, now this molecule:
Qu. Item O=C(O)C=CC(Br)=Cc1ccccc1 [Compound 4ii, 4-Bromo-5-phenylpenta-2,4-dienoic acid] has what recorded HO (%) (±SD)?
Ans. 100 ± 1.8%
